# experimentalTarget: Oxytocin receptor (Homo sapiens)
# Sequence (P30559 whole entry): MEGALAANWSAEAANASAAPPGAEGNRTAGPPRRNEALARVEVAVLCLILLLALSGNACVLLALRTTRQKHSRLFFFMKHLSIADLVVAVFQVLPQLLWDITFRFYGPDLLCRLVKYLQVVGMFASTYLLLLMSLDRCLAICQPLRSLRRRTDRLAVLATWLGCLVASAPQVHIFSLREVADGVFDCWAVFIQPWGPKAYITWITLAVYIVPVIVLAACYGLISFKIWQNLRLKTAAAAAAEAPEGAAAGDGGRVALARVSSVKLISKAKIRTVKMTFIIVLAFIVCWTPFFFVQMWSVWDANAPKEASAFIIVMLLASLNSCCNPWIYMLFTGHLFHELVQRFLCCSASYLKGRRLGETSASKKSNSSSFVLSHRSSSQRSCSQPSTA
# methodDescription: Displacement of [3H]oxytocin from human oxytocin receptor
Categorized via Ki: low interval = under 0.08 nM, middle interval = from 0.08 nM up to 0.5 nM, high interval = 0.5 nM and over

Would you please look over these solved cases?
| molecule | classAssignment |
| --- | --- |
| CC[C@H](C)[C@@H]1C(=O)N[C@H](C2Cc3ccccc3C2)C(=O)N1[C@@H](C(=O)N(C)C)c1ccc(C)[n+]([O-])c1 | high interval |
| CC[C@H](C)[C@@H]1C(=O)N[C@H](C2Cc3ccccc3C2)C(=O)N1[C@@H](C(=O)N(C)C)c1cnc(C)cc1C | low interval |
| CC(C)C[C@@H]1C(=O)N[C@H](C2Cc3ccccc3C2)C(=O)N1[C@@H](C(=O)N(C)C)c1ccc(N(C)C)nc1 | middle interval |

# bin label for Cc1ccc([C@H](C(=O)N(C)C)N2C(=O)[C@@H](C3Cc4ccccc4C3)NC(=O)[C@H]2CC(C)(C)C)cn1
low interval

GET /class?item= CCC(CC)[C@@H]1C(=O)N[C@H](C2Cc3ccccc3C2)C(=O)N1[C@@H](C(=O)N1CCOCC1)c1ccc(C)nc1C
low interval

Which of the defined bands does the recorded Ki of CC[C@@H](C)[C@@H]1C(=O)N[C@H](C2Cc3ccccc3C2)C(=O)N1[C@@H](C(=O)N(C)C)c1ccc(C)nc1 sit within?
high interval

Bin? CC[C@H](C)[C@@H]1C(=O)N[C@H](C2Cc3ccccc3C2)C(=O)N1[C@@H](C(=O)NC)c1cnc(C)cc1C
low interval
